assay: yeast display, Sf9 membrane polyspecificity reagent, FACS + sequencing; frameworks hold sequencing errors
READOUT_LABEL: polyreactivity (PSR sort gate)

SEQUENCE_ENTRY	EXPERIMENTAL_VALUE
QGQLVESGGGLVQAGGSLRLSCAASGSIFYINAMGWYRQAPGKERELVASISGGGGSTYYADSVKGRFTLSRDNAKNTVYLQMNSLKPEDTAVYYCNTVSRKDYDYWGQGTQVTVSS	high polyreactivity
QVQLVESGGGLVQAGGSLRLSCAASGFILDYYAMGWYRQAPGKERELVATITGRGDRTYYADSVKGRFTISRDNAMNTVYLQMNSLKPEDTAVSYCAAGFDGSRHPGFDSWGQGTQVTVSS	low polyreactivity
EVQLEESGGGLVQAGGSLRLSCPASGLIFGLYAMGWYRQAPGKERELVAAISYRTDSTYADSVKGRFTISRDNAKNTFYLQKNSLIPEDTAVYYCAADLRVSVGYYYWGQGTQVTVSS	low polyreactivity
QVQLVESVGGLVQAGGSLRLSCAASGSIFTHNTMGWYRQAPGKERELVASIDSGASTNYADSVKGRFTISRDNAKNTVYLQMNSLKPEDTAVYYCAARDYDWGYPYYYWGQGTQVTVSS	low polyreactivity

INPUT: Please give the measured polyreactivity (PSR sort gate) for this sequence: `QVHLVESGGGLVQAGGSLRLSCAASGRIFAYYTMGWNRQAPGKERELVARITKNGGSTYYAESVKGRFTISRDNAKNTVYLQMNSLKPEDTAVYYCNADSGYTGRRTRERYYYWGQGTQVTVSS`
OUTPUT: high polyreactivity

* * *

assay: yeast display, Sf9 membrane polyspecificity reagent, FACS + sequencing; frameworks hold sequencing errors
READOUT_LABEL: polyreactivity (PSR sort gate)

SEQUENCE_ENTRY	EXPERIMENTAL_VALUE
QVQLVESGGGLVQAGGSLRLSCAASGSTFYWYAMGWYRQAPGKEREFVAAISLGSGSTYYADSVKGRFTISRDNAKNTVYLQMNSLKPEDTAVYYCARRYPYPAYEYGYWGQGTQVTVSS	high polyreactivity
QVQLVESGGGLVQAGGSLRLSCAASRRIFASNAMGWNSQAPGKERELVAAITSSGGSTYYADSVKGRFTISLDNAKNTVYLQMNSLKPEDTAVYYCNAGDYYYRLVTAKPSSYDYWGQGTQVTVSS	high polyreactivity
QVQLVESGGGLVQAGGSLRLSCAASGRIFRGNAMGWFRQAPGKERELVASISTSGVRTFYADSVKGRFTISRDNAKNTVYLQMNSLKPEDTAVYDCNKRDRYRMYGFNYWGQGTQVTVSS	high polyreactivity

* * *

assay: yeast display, Sf9 membrane polyspecificity reagent, FACS + sequencing; frameworks hold sequencing errors
READOUT_LABEL: polyreactivity (PSR sort gate)

Worked set:
SEQUENCE_ENTRY	polyreactivity (PSR sort gate)
QVQLVESGGGLVQAGGSLRLSCAASGSIFSLYAMGWYRQAPGKERELVAAISRGGSTNYADSVKGRFTISRDNAKNTVYLQMNSLKPEDTAVYYCNAGFGVRRKHITFYTWYDYWGQGTQVTVSS	low polyreactivity
QVQLVDSGGGLVQAGGSLRLSCAASGIIFWRYAMGWYRQAPGKERELVASISSSGGRTYYADSVKGRFTISRDNAKNTVYLQMNSLKPEDTAVYYCAARGPYGYDLLYYWGQGTQVTVSS	high polyreactivity
QVQLVESGGGLVQAGGSLRLSCAASGIIFYDYAMGWYRQAPGKERELVAAIDTGDSTYYADSVKGRFTISRDNAKKTVDLQMNSLKPEDTAVYYCAADYIFYTYIFYWGQGTQVTVSS	high polyreactivity
QVQLVESGGGLVQAGGSLRLSCAASGIIFYGYVMGWYRQAPGKERELVATITSSGGSTYYADSVKGRFTISRDNAKNTVYLQMNSLKPEDTGVYYCAADYYYGAWVRHDYWGQGTQVTLSS	low polyreactivity

# ---- query sequence ----
INPUT: Please give the measured polyreactivity (PSR sort gate) for this sequence: `QVQLVESGGGLVQAGGSLRLSCAASGRTFTRYAMGWYRQAPGKERELVAAITSDGTTYYADSVKGRFTISRDNAKNTVYLQMNSLKPEDTAVYYCNAQYKFPDLGGYDYWGQGTQVTVSS`
OUTPUT: high polyreactivity

* * *

test: yeast display, Sf9 membrane polyspecificity reagent, FACS + sequencing; frameworks hold sequencing errors
READOUT_LABEL: polyreactivity (PSR sort gate)

SEQUENCE_ENTRY	READOUT_LABEL	EXPERIMENTAL_VALUE
QVQLVESGGGLVQAGGSLLLSWAASGRSFKYNAMGWDRQAPGKERELVAAISGSGGRTYYADSVKGRFTISRDNAKNTVYLQMNSLIPEDTAVYYCNARYVLYKPDYHRGGRMGYWGQGTQVTVSS	polyreactivity (PSR sort gate)	high polyreactivity
QVQIVESGGGLVQAGGSLRLSCAASGSTVQYYAMGWYRQAPGKERELVAAISYTGGSTYYADSVKARFTISRDNAKNSVYLEMSSLKPEDTAVYYCAAGRRGSDTGTEYYWGQGTQVTVSS	polyreactivity (PSR sort gate)	high polyreactivity
QVQIVESGGGLVQAGGSLRLSCAASGSTFWYNAMGWYRQAPGKERELVAAITWTGDGTYYADSVKGRFTISRDNAKNTVYLQMNSLKPEDTAVYYCAAAYFQWSTSIVGLDAGYDYWGQGTQVNVSS	polyreactivity (PSR sort gate)	low polyreactivity
QVHLVESGGGLVQAGGSLRLSCAASGSIFYYYAMGWYRQAPGKEREFVAAINWSGGITYYADSVKGRFTISRDNAKNTVYLQMNSLKPEDTAVFYCAAPVRGYSYGKYDYWGQGTQVTVSS	polyreactivity (PSR sort gate)	high polyreactivity

INPUT: Please give the measured polyreactivity (PSR sort gate) for this sequence: `QVQLVESGGGLVQAGGSLRLSCAASGRIFSYYALGWYRQAPGKERELVAAISSRGGSTYYADSVKGRFTISRDNAKNTVYLQMNSLKPEDTAVYYCNAYVYQVIGHDYWGQGTQVTVSS`
OUTPUT: high polyreactivity

INPUT: Please give the measured polyreactivity (PSR sort gate) for this sequence: `QVQLVESGGGLVQAGGSLRLSCADSGRIFFKYAMGWYRQAPGKERELVASISRRGGSTTYADSVKGRFTISRDNAKNTVYLQMNSLKPEDTAVYYCNTVSWWGRNYQDEYYYWGQGTQVTVSS`
OUTPUT: high polyreactivity

INPUT: Please give the measured polyreactivity (PSR sort gate) for this sequence: `QVQLVESGGGLVQAGGSLRLSSAASGLIFFTYAMGWYRQAPGKERELVATISRGGRTKYADSVKGRFTISRDNAKNSVYLQMNSLKPEDTAVYYCAAYLSRSYYAYDYWGQGTQVTVSS`
OUTPUT: high polyreactivity

INPUT: Please give the measured polyreactivity (PSR sort gate) for this sequence: `QVQLVESGGGLVQAGGSLRLSCAASGLIFAIYAMGWYRQAPGNERELVAAIRWSGASTYADSVKGRFTISRDNAKNTVYLQMNSLKPEDTAVYYCAADDLLDYDYWGQGTQVTVSS`
OUTPUT: low polyreactivity

INPUT: Please give the measured polyreactivity (PSR sort gate) for this sequence: `QVQLVESGGGLVQAGGSLRLSCAASGLTFFKYTMGWYRQPPGKERELVSAINGGGSTNYADSVKGRFSISRDNAKNTVYLQMNSLKPEDTAVYYCAAGLQYGYDYWGQGTQVTVSS`
OUTPUT: low polyreactivity

INPUT: Please give the measured polyreactivity (PSR sort gate) for this sequence: `QVQLVESGGGLVQAGGSLRLSCAASGNTSPFYAMGWYRQAPGKERELVAAISANGGSTTYADSVKGRFTISRDNAKNTVYLQMNSLKPEDTALYYCNALSLLSDGAASVDQVTFDYWGQGTQVTVSS`
OUTPUT: low polyreactivity

INPUT: Please give the measured polyreactivity (PSR sort gate) for this sequence: `QVQLVESGGGLVQAGGSLRLSCAASGFTFYVYAIGWYRKAPRKEREFVAAISKSGGRTYYADSVKGRFTISRDTAKNTVYLQMNSLKPEDTAVYYCGRYNRYQIIYPRFDYWGHGTQVTVSS`
OUTPUT: high polyreactivity

INPUT: Please give the measured polyreactivity (PSR sort gate) for this sequence: `QVQLVESGGGLDQAGGSLRLSCAASGAIFPIYAMGWYRQAPGKERELVAAINRSGGSTYYADSVKGRFTISRDTAKNTVYLQMNSLKPEDSAVYYCNADYGYHNQLFWGYYGWSSDHWGQGTQVTVSS`
OUTPUT: low polyreactivity

INPUT: Please give the measured polyreactivity (PSR sort gate) for this sequence: `QVQLVESGGGLVQAGGSLRLSCAASGRTFLYNAMGWYRQAPGKERELVAAIRRGSSTYYADSVKGRFTISRDNAMNTVYLQMNSLKPEDTAVYYCAARGRYRIGPGRYGKRYDYWGQGTQVTVSS`
OUTPUT: high polyreactivity

INPUT: Please give the measured polyreactivity (PSR sort gate) for this sequence: `QVQLVESGGGLVQAGGSLRLSCAASGSIFSPYAMGWYRQAPGKEREFVAAITWSDGGTYADSVKGRFTISRDNAKNTVYLQMNSRKPEDTAVYYCAAKLASYLVTGMDYWGQGTQVTVSS`
OUTPUT: low polyreactivity

INPUT: Please give the measured polyreactivity (PSR sort gate) for this sequence: `QVQLVESGGGLVQAGGSLRISCAASGSIFYRYAMGWYRQAPGKERELVAAIRTRGGTYYADSVKGRFTISRDNAKNTVYLQMNSLKPEDTAVYYCNAVVPGWTAVDYDYWGQGTQVTVSS`
OUTPUT: high polyreactivity

INPUT: Please give the measured polyreactivity (PSR sort gate) for this sequence: `QVQLVESGGGLVQAGGSLRLSCAASGRISGLYAMGWYRQAPGKERELVAAITTSADRTYYADSVKGRFTISRDNAKNTVYLQMNSLKPEDTAVYYCAADSSRPRMYYWGQGTQVTVSS`
OUTPUT: low polyreactivity

INPUT: Please give the measured polyreactivity (PSR sort gate) for this sequence: `QVQLVESVGGLVQAGASLRLSCAASGGTFPVYAMGWYRQAPGKEREMVAAISYSGVTTYYADSVKGRFTISRDNAKNTVYLQMNSLKPDDTAVYYCNADWRRWYIFSYDYWGQGTLVTVSS`
OUTPUT: low polyreactivity

INPUT: Please give the measured polyreactivity (PSR sort gate) for this sequence: `QVQLVESGGGLLQAGGSLRLSCAASGSIFTYYAMGWYRQAPGKEREFVAAINYGGGSTYYADSVKGRFTISRDNAKNTVYLQMNSQKPEDTAVYYCNARTFGPNGKHRYGYWGQGTQVSVSS`
OUTPUT: high polyreactivity

INPUT: Please give the measured polyreactivity (PSR sort gate) for this sequence: `QVQLVESGGGLVQAGGSLRLSCAASGSTFTWYAMGWYRQAPGKERELVADISYGGGSTYYADSVKGRFTISRDNAKNTVYLQMNSLKPEDTAVYYCAAESIPYYSYDYWGQGTQVTVSS`
OUTPUT: low polyreactivity

INPUT: Please give the measured polyreactivity (PSR sort gate) for this sequence: `QVQLVESVGGLVQAGGSLRLTCAASGRIFEINTMGWYRQAPGKERELVAAISRGGGSTYYADSVKGRFTISRDNAKNTVYLQMNSLKPEDTAVYYCAAASYYVEGDYWGQGTQVTVSS`
OUTPUT: low polyreactivity

INPUT: Please give the measured polyreactivity (PSR sort gate) for this sequence: `QVQLVESGGGLVQAGGSLRLSCAASGRIFYNYGLGWYRQAPGKERELVARITTGGRTNYADSVKGRFTMSRDNAKNTVYLQMNSLKPEDTAVYYCNADGYHSRWYYYNYDYWGQGTQVTVSS`
OUTPUT: low polyreactivity
